From: BindingDB's records for doi:10.1111/j.1747-0285.2007.00608.x

- Tested System: UDP-3-O-acyl-N-acetylglucosamine deacetylase (Pseudomonas aeruginosa (strain ATCC 15692 / DSM 22644 / CIP 104116 / JCM 14847 / LMG 12228 / 1C / PRS 101 / PAO1))
- Assay Protocol: Inhibition Assay
pIC50: −log10 of the molar value.
Reported Property: pIC50

Solved entries (count: 2):
{"Compound String": "O=C(NO)[C@@H]1COC(c2ccc(OCc3cccc([N+](=O)[O-])c3)cc2)=N1", "pIC50": 6.00}
{"Compound String": "CCCCn1nc2ccccc2c1C1=N[C@@H](C(=O)NO)CO1", "pIC50": 4.92}

(a) O=C(N[C@@H](CO)C(=O)NO)c1n[nH]c2ccccc12
(b) Cc1cc(C2=N[C@@H](C(=O)NO)CO2)ccc1F
(c) CN(C)c1ccc(C2=N[C@@H](C(=O)NO)CO2)cc1
Exam item: Write the entries in order, lowest recorded pIC50 first. Record the ranking as a list of labels in the requested order.
Marked response: a, c, b
(a: 4.89, c: 5.31, b: 5.92)

###

- Tested System: UDP-3-O-acyl-N-acetylglucosamine deacetylase (Pseudomonas aeruginosa (strain ATCC 15692 / DSM 22644 / CIP 104116 / JCM 14847 / LMG 12228 / 1C / PRS 101 / PAO1), UniProt P47205)
- Sequence (P47205 whole entry): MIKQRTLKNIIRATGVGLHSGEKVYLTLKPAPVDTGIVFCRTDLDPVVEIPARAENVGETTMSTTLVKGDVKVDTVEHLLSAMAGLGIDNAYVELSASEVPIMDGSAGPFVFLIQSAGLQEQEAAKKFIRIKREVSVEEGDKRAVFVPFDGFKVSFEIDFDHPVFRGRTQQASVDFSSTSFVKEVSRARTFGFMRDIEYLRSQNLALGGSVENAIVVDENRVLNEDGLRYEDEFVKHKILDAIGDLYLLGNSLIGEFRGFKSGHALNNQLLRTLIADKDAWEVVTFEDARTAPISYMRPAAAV
- Assay Protocol: Inhibition Assay
pIC50: −log10 of the molar value.
Reported Property: pIC50

{"Compound String": "Cc1ccc(C2=N[C@H](C(=O)NO)CS2)cc1", "Reading": 4.41}
{"Compound String": "O=C(NO)[C@H]1COC(c2n[nH]c3ccccc23)=N1", "Reading": 5.26}
{"Compound String": "CCCc1cc(C2=N[C@@H](C(=O)NO)CO2)cc(OC(F)(F)F)c1OC", "Reading": 6.30}
{"Compound String": "C=CCOc1ccc(C2=N[C@@H](C(=O)NO)CO2)cc1C(F)(F)F", "Reading": 5.66}
{"Compound String": "O=C(NO)[C@H]1COC(c2ccc(OCc3cccc(F)c3)c(C(F)(F)F)c2)=N1", "Reading": 6.60}
{"Compound String": "CCCc1cc(C2=N[C@H](C(=O)NO)CS2)cc(OC(F)(F)F)c1OC", "Reading": 4.75}

(1) O=C(NO)[C@H]1COC(c2cc(F)cc(C(F)(F)F)c2)=N1
(2) O=C(NO)[C@H]1COC(c2ccc(COc3cccc([N+](=O)[O-])c3)cc2)=N1
Exam item: When the recorded pIC50 values are compared, which is smaller: that of 1 or that of 2 ? Response format: the label of the selected entry.
Marked response: 1
(1: 4.60, 2: 6.25)

###

- Tested System: UDP-3-O-acyl-N-acetylglucosamine deacetylase (Pseudomonas aeruginosa (strain ATCC 15692 / DSM 22644 / CIP 104116 / JCM 14847 / LMG 12228 / 1C / PRS 101 / PAO1))
- Assay Protocol: Inhibition Assay
Reported Property: IC50 (nM)

(P) CCCCn1nc(C2=N[C@@H](C(=O)NO)CO2)c2ccccc21
(Q) COc1ccc(C2=N[C@H](C(=O)NO)CO2)cc1OC(F)(F)F
Exam item: When the recorded IC50 values are compared, which is smaller: that of P or that of Q ? Response format: the label of the selected entry.
Marked response: Q
(Q: 160 nM, P: 10000 nM)
